- experimentalSystem: Ubiquitin-activating enzyme e1, putative (Leishmania donovani (strain BPK282A1))
- procedureSummary: Leishmania donovani Ubiquitin Activating Enzyme (LdE1)
- Assay type: functional
- Design: scale not given: direction of the effect not stated beside the values
- conditionDescription: 30 µM
Measured potencies and affinities stand elsewhere.
endpointLabel: Percent Effect (%)

[[record]]
compound = "Nc1cc(CCCNC(=O)NC2CC2)nn1-c1ccccc1"
endpointlabel = "Percent Effect"
reportedresult = 5.48

[[record]]
compound = "CCOC(=O)N1CCN(C(=O)c2sc(-c3ccccc3F)nc2C)CC1"
endpointlabel = "Percent Effect"
reportedresult = 5.41

[[record]]
compound = "Cc1cc(C2CCCN2Cc2ccn(C)c(=O)c2)no1 (centres undefined)"
endpointlabel = "Percent Effect"
reportedresult = -10.3

[[record]]
compound = "Cc1nc(CC(=O)N2CCCCC2c2ccn3ccnc3n2)cs1 (centres undefined)"
endpointlabel = "Percent Effect"
reportedresult = -4.05

[[record]]
compound = "Cn1nnc2c1CCN(Cc1ccccc1)C2COCC1CC1 (centres undefined)"
endpointlabel = "Percent Effect"
reportedresult = 2.67

[[record]]
compound = "Cn1ccnc1CNC(=O)N(CCCO)C1CCCc2ccccc21 (centres undefined)"
endpointlabel = "Percent Effect"
reportedresult = 5.26

[[record]]
compound = "CC(=O)NC1CCCN(C(=O)Nc2cnc3c(cnn3C(C)C)c2)C1 (centres undefined)"
endpointlabel = "Percent Effect"
reportedresult = 16.2

[[record]]
compound = "COCCNC(=O)[C@H]1C[C@@H]2CCN(Cc3ccoc3)C[C@H]2O1"
endpointlabel = "Percent Effect"
reportedresult = 8.11

[[record]]
compound = "O=C(Cc1ccccc1)N1CCC2(CC(=O)N(c3cccc(F)c3)C2)C1 (centres undefined)"
endpointlabel = "Percent Effect"
reportedresult = 2.7

[[record]]
compound = "O=C1CN(Cc2ccc(-c3ccccc3C(=O)O)cc2)CCN1"
endpointlabel = "Percent Effect"
reportedresult = 12

[[record]]
compound = "O=C(NCCO)C1(Cc2cc(-c3ccc(F)cc3F)no2)CCOCC1"
endpointlabel = "Percent Effect"
reportedresult = 12.2

[[record]]
compound = "Cc1ccc(CNC(=O)NCCCn2nc3ccccn3c2=O)s1"
endpointlabel = "Percent Effect"
reportedresult = 16.2

[[record]]
compound = "O=C(C1CCOCC1)N1C[C@@H]2[C@@H](C1)OCC(=O)N2Cc1ccncc1"
endpointlabel = "Percent Effect"
reportedresult = -2.74

[[record]]
compound = "O=c1cc2c(nn1CN1CCOCC1)CCC2"
endpointlabel = "Percent Effect"
reportedresult = 14.7

[[record]]
compound = "COc1cccc(OCC2CCCN(C(C)=O)C2)c1 (centres undefined)"
endpointlabel = "Percent Effect"
reportedresult = 14.7

[[record]]
compound = "CN(C)Cc1cnc2n1CCN(Cc1ccsc1)CC2"
endpointlabel = "Percent Effect"
reportedresult = 13.7

[[record]]
compound = "O=C(COc1coc(CN2CCCCC2)cc1=O)NCc1ccccc1"
endpointlabel = "Percent Effect"
reportedresult = 7.89

[[record]]
compound = "COC(=O)C(NC(=O)COC1CCCC1)c1cc(F)ccc1F (centres undefined)"
endpointlabel = "Percent Effect"
reportedresult = 7.79

[[record]]
compound = "CCCc1nc(CN2CCCC2Cn2cncn2)cs1 (centres undefined)"
endpointlabel = "Percent Effect"
reportedresult = 12.7

[[record]]
compound = "Cn1nc2c(cc1=O)CN(Cc1nnc(-c3ccc(F)cc3)o1)CC2"
endpointlabel = "Percent Effect"
reportedresult = 7.69

[[record]]
compound = "CC(C)(C)c1nnc(CN2CCn3c(nnc3C3CC3)C2)o1"
endpointlabel = "Percent Effect"
reportedresult = -2.67

[[record]]
compound = "CN(C)CCN1CCC2(CCN(C(=O)c3ccc(F)cc3)CC2)C1=O"
endpointlabel = "Percent Effect"
reportedresult = 14.3

[[record]]
compound = "COc1ccccc1OCC(=O)Nc1ncccc1Cl"
endpointlabel = "Percent Effect"
reportedresult = 15.3

[[record]]
compound = "Clc1ccccc1C1(c2ccnc(-c3ccncc3)n2)CCNCC1"
endpointlabel = "Percent Effect"
reportedresult = 7.79

[[record]]
compound = "Cc1cc(C)n(C2CCCN(C(=O)COCC(F)(F)F)C2)n1 (centres undefined)"
endpointlabel = "Percent Effect"
reportedresult = 2.56

[[record]]
compound = "Cn1cc(-c2csc(N3CCOCC3)n2)cn1"
endpointlabel = "Percent Effect"
reportedresult = 1.39

[[record]]
compound = "Cc1cccnc1NC(=O)C(C)Cn1nc(C(F)(F)F)cc1C (centres undefined)"
endpointlabel = "Percent Effect"
reportedresult = -4

[[record]]
compound = "O=C(C1CCOCC1)N1C[C@@H]2C[C@@H](c3nc(C4CC4)cs3)O[C@@H]2C1"
endpointlabel = "Percent Effect"
reportedresult = 16.4

[[record]]
compound = "CCn1cc(NC(=O)NCc2ccc(CN3CCOCC3)cc2)cn1"
endpointlabel = "Percent Effect"
reportedresult = 13

[[record]]
compound = "Cc1noc(NC(=O)c2ccc(Br)s2)n1"
endpointlabel = "Percent Effect"
reportedresult = -5.26

[[record]]
compound = "O=C(Nc1cc(F)ccc1OCC1CCCO1)c1ccccn1 (centres undefined)"
endpointlabel = "Percent Effect"
reportedresult = 2.6

[[record]]
compound = "CC(C)Nc1ccc2nc(C3CCN(C(C)C)CC3)nn2c1"
endpointlabel = "Percent Effect"
reportedresult = 8.11

[[record]]
compound = "O=C(NCC(O)c1cccs1)c1cccc(Cl)c1 (centres undefined)"
endpointlabel = "Percent Effect"
reportedresult = 13.7

[[record]]
compound = "O=C1C(NCc2nnc3n2CCCC3)CCCN1c1cccc(F)c1 (centres undefined)"
endpointlabel = "Percent Effect"
reportedresult = 10.3

[[record]]
compound = "Cc1nc(C)c(C(=O)OCCNc2ncccc2C#N)s1"
endpointlabel = "Percent Effect"
reportedresult = 10.4

[[record]]
compound = "O=C(N1CCCC1)N1CCc2ncnc(C3CCOC3)c2CC1 (centres undefined)"
endpointlabel = "Percent Effect"
reportedresult = -2.67

[[record]]
compound = "O=C1NC2(CCN(Cc3cccnc3)CC2)CC1c1ccncc1 (centres undefined)"
endpointlabel = "Percent Effect"
reportedresult = 6.49

[[record]]
compound = "COCCN1C(=O)CC(N2CCN(c3ccc(F)cc3)CC2)C1=O (centres undefined)"
endpointlabel = "Percent Effect"
reportedresult = 10.5

[[record]]
compound = "COCCNC(=O)[C@H]1CN(c2nnc(C)s2)C[C@H]2OCC[C@@H]12"
endpointlabel = "Percent Effect"
reportedresult = 0

[[record]]
compound = "O=C1C(NCc2nnc3n2CCCC3)CCN1CC(F)(F)F (centres undefined)"
endpointlabel = "Percent Effect"
reportedresult = 2.56

[[record]]
compound = "Cc1cccc(CCC(=O)N2CCOCC2c2c(C)n[nH]c2C)c1 (centres undefined)"
endpointlabel = "Percent Effect"
reportedresult = -5.48

[[record]]
compound = "O=C(CN1CC(n2cccn2)C1)NCCCc1ccccc1"
endpointlabel = "Percent Effect"
reportedresult = -13.5

[[record]]
compound = "CC(C)c1nc(CC(=O)N2CCCC(n3cncn3)C2)cs1 (centres undefined)"
endpointlabel = "Percent Effect"
reportedresult = 20.5

[[record]]
compound = "Cc1cc(C)n(CC2CCCN2CCc2ccncc2)n1 (centres undefined)"
endpointlabel = "Percent Effect"
reportedresult = 7.69

[[record]]
compound = "COCCn1ccc(=O)c(OCC(=O)Nc2cccc(C(C)=O)c2)c1C"
endpointlabel = "Percent Effect"
reportedresult = 12

[[record]]
compound = "COc1ccc2c(c1)CCCN2Cc1nc2c(cnn2C)c(=O)[nH]1"
endpointlabel = "Percent Effect"
reportedresult = 20.2

[[record]]
compound = "CN(Cc1ccc(Cl)c(Cl)c1)C(=O)CNC(N)=O"
endpointlabel = "Percent Effect"
reportedresult = 10.5

[[record]]
compound = "c1cnc(NCc2ncn3c2CN(Cc2cccnc2)CCC3)nc1"
endpointlabel = "Percent Effect"
reportedresult = 2.7

[[record]]
compound = "CNC(=O)C1(c2cnccn2)CCCN1C(=O)c1ccn(C)n1 (centres undefined)"
endpointlabel = "Percent Effect"
reportedresult = 6.76


* * *

- experimentalSystem: Tyrosyl-tRNA synthetase, putative (Trypanosoma cruzi (strain CL Brener)) (UniProt Q4DSP6)
- Sequence (whole entry): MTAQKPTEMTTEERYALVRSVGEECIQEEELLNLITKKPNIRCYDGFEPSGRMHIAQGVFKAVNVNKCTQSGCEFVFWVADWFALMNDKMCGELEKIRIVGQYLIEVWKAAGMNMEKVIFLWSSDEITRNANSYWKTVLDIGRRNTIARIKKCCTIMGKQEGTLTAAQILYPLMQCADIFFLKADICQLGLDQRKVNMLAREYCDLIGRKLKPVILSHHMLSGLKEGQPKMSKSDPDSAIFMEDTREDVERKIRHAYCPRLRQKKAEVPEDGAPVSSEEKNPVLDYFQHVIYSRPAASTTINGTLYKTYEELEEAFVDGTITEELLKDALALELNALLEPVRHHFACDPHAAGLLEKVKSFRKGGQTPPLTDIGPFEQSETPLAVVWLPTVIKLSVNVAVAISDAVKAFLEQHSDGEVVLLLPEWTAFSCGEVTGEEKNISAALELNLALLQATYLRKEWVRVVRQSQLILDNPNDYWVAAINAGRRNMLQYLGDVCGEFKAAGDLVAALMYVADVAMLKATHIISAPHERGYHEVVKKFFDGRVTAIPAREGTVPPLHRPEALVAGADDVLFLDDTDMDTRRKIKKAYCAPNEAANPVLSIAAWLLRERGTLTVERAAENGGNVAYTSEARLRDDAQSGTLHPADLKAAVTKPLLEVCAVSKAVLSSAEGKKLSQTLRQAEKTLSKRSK
- procedureSummary: Trypanosoma cruzi tyrosyl tRNA synthetase (TcYRS) SOP
- Format: functional
- Parameters: scale not given: direction of the effect not stated beside the values
- conditionDescription: 30 µM
endpointLabel: Percent Effect (%)

[[record]]
molecule = "CS(=O)(=O)CCNC(=O)C1(c2cccc(Cl)c2)CCCCC1"
endpointlabel = "Percent Effect"
reportedresult = -7.69

[[record]]
molecule = "CC(=O)NC1CCCN(C(=O)NCc2cccnc2N(C)C)C1 (stereo unspecified)"
endpointlabel = "Percent Effect"
reportedresult = 15.4

[[record]]
molecule = "C[C@H]1CN(Cc2cnn(C)c2)C[C@@]12CCN(Cc1cccnc1)C2=O"
endpointlabel = "Percent Effect"
reportedresult = 2.5

[[record]]
molecule = "CC1c2ncc(CNC(=O)C3CC3)n2CCN1Cc1cnn(C)c1 (stereo unspecified)"
endpointlabel = "Percent Effect"
reportedresult = 12.5

[[record]]
molecule = "Cc1nn(C)c(C)c1CC(=O)N1CCCC(n2ccnc2)C1 (stereo unspecified)"
endpointlabel = "Percent Effect"
reportedresult = -1.24

[[record]]
molecule = "CCc1nc(C2CCCN(C(=O)CN(C)S(C)(=O)=O)C2)no1 (stereo unspecified)"
endpointlabel = "Percent Effect"
reportedresult = 21.2

[[record]]
molecule = "Cn1cc(CN2CCCC3(CCN(Cc4cccnc4)C3=O)C2)cn1 (stereo unspecified)"
endpointlabel = "Percent Effect"
reportedresult = 12.8

[[record]]
molecule = "CS(=O)(=O)c1ccc(NC(=O)N2CCc3sccc3C2)cn1"
endpointlabel = "Percent Effect"
reportedresult = 11

[[record]]
molecule = "CCN1CCCC1CN(CCN(C)C)S(=O)(=O)c1ccc(C#N)cc1 (stereo unspecified)"
endpointlabel = "Percent Effect"
reportedresult = 15

[[record]]
molecule = "O=C(Cc1cccnc1)N1CCC(OCc2ccccc2)CC1"
endpointlabel = "Percent Effect"
reportedresult = 19.5

[[record]]
molecule = "CSCC[C@H](NC(=O)Cn1ccc2c(Cl)cccc21)C(=O)O"
endpointlabel = "Percent Effect"
reportedresult = 7.69

